- experimental_system: Mitogen-activated protein kinase 14 (Homo sapiens)
- Sequence (Q16539 whole entry): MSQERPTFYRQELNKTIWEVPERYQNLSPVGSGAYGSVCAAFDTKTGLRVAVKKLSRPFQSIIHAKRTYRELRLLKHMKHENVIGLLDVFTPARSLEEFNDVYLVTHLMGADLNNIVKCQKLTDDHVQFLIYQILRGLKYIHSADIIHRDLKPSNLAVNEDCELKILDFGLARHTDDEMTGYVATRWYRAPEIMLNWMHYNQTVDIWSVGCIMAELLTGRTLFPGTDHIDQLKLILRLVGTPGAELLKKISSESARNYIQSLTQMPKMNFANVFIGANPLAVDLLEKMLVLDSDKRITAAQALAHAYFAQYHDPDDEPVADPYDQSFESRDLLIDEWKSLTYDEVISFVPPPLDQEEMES
- measurement_notes: Inhibition of p38 alpha MAPK in human whole blood assessed as suppression of LPS-induced TNF-alpha release by immunosorbent non-radioactive enzyme assay
- Type: tissue-based
readout_name: IC50 (µM)

Solved cases below.
>>> observed_value("CC(C)Nc1cc(-c2[nH]c([S+](C)[O-])nc2-c2ccc(F)cc2)ccn1 (racemic)")
0.47
>>> observed_value("CC(C)[S@@+]([O-])c1nc(-c2ccc(F)cc2)c(-c2ccnc(NC3CCCCC3)c2)[nH]1")
0.25

1: CSc1nc(-c2ccc(F)cc2)c(-c2ccnc(N[C@H](C)C(C)C)c2)[nH]1
2: CC(C)Nc1cc(-c2nc([S@@+]([O-])C(C)C)[nH]c2-c2ccc(F)cc2)ccn1
Q) Pick one: 1 or 2 . Which has the bigger IC50 number? Identify your selection by its label.
A) 2
(2: 0.61 µM, 1: 0.18 µM)

1: CC(C)[C@H](C)Nc1cc(-c2nc([S@@+](C)[O-])[nH]c2-c2ccc(F)cc2)ccn1
2: CC(C)Sc1nc(-c2ccnc(NC3CCCCC3)c2)c(-c2ccc(F)cc2)[nH]1
Q) Please indicate which has the smaller reported IC50: 1 , or 2 . Reply with the label of the item you choose.
A) 1
(1: 0.2 µM, 2: 0.65 µM)

I: CSc1nc(-c2ccnc(NC3CCOCC3)c2)c(-c2ccc(F)cc2)[nH]1
II: C[S@+]([O-])c1nc(-c2ccnc(NC(=O)Cc3ccc(F)cc3)c2)c(-c2ccc(F)cc2)[nH]1
Q) Between I and II , which one shows the smaller IC50 number? Please indicate the selected item by its label.
A) I
(I: 0.18 µM, II: 7.53 µM)
